- System: HOP-92
- PROTOCOL: NCI tumour cell line growth inhibition, 48 h
The source made the active and inactive calls. No stated cut-off is given here; in the data, active = GI50 up to about 1.1 µM and inactive = higher.
Classes used: active, inactive

| MOLECULE | CLASS_NAME |
| --- | --- |
| COc1ccc(CC[N+]2(C)COc3cc4oc(=O)cc(C)c4cc3C2)cc1OC (stereo unspecified) | inactive |
| C[C@]12CCC(=O)C=C1CC[C@@H]1[C@@H]2CC[C@]2(C)C(=O)/C(=C/c3ccncc3)C[C@@H]12 | inactive |
| Nc1ncnc2c1nnn2C1CCC(CP(=O)(O)O)C1 (stereo unspecified) | inactive |
| C/C(=N\NC(=[Se])N1CCN(c2ccccn2)CC1)c1ccccn1 | active |
| Cc1n[nH]c(=O)n1/N=C/c1ccc(Cl)cc1 | inactive |
| O=C(NC12CC3CC(CC(C3)C1)C2)C(=O)c1c[nH]c2ccccc12 | inactive |
| Cc1cccc2c1Oc1cc(Cl)ccc1C2NC(=O)CCN1CCCCC1 (stereo unspecified) | inactive |
| COc1ccc2c(=O)c([Se]c3coc4cc(OC)ccc4c3=O)coc2c1 | inactive |
| SC1=NC2(CCCCCC2)NN1c1ccccc1 | inactive |
| C=C1CC(COc2ccc3ccc(=O)oc3c2)(c2ccccc2)OC1=O (stereo unspecified) | active |
| C[C@]12CC=CC(=O)[C@@]1(C)CCC(=O)C2 | inactive |

* * *

- Test system: SNB-75
- PROTOCOL: NCI tumour cell line growth inhibition, 48 h
Activity calls are given as the source filed them. Cut-off read from the data, not from the text of the source: active = GI50 up to about 1.1 µM and inactive = higher. Where a SMILES comes first, the peptide text is derived from it. The star is where a group is joined. Cbz = O=C(OCc1ccccc1)*
Classes used: active, inactive

| COMPOUND | CLASS_NAME |
| --- | --- |
| O=c1ccn([C@@H]2C[C@H]2CO)c(=O)[nH]1 | inactive |
| COc1ccc(/C=C\c2cc(OC)c(OC)c(OC)c2)cc1OC(=O)NCCN(C)C | active |
| COc1cc2c(cc1OC)C1(c3ccccc3)ON=C(c3ccccc3)N1CS2 (centres undefined) | inactive |
| COc1ccc(/C=N/n2cnc3c(c2=O)SC(=C(C#N)C#N)N3c2ccccc2)cc1 | inactive |
| O=C(NC1(C(=O)O)CC1c1ccccc1)c1ccccc1 (centres undefined) | inactive |
| COc1ccc2c3c([nH]c2c1)[C@H](C=C(C)C)N1C(=O)[C@@H]2CCCN2C(=O)[C@@H]1C3 | inactive |
| CCOC(=O)CNC(=O)C(C)NC(=O)C(NC(=O)OCc1ccccc1)C(C)C (stereo not drawn) (Cbz-Val-Ala-Gly-OEt; configuration not given here) | inactive |
| Cc1ccc2c(c1)C(=O)/C(=C\c1ccc(Cl)cc1)CCS2(=O)=O | inactive |
| COc1ccc(/C=C/C(=O)N[C@@H]2C(=O)N3[C@@H]2SC(C)(C)[C@@H]3C(=O)O)cc1OC | inactive |

* * *

- Test system: M14
- PROTOCOL: NCI tumour cell line growth inhibition, 48 h
The source made the active and inactive calls. Cut-off read from the data, not from the text of the source: active = GI50 up to about 1.1 µM and inactive = higher.
Collected GI50 values appear next to each entry.

| MOLECULE | SUBJECT_OF_TEST | GI50 |
| --- | --- | --- |
| CCCCC(C(=O)C(=O)Nc1ccc(C)cc1C)C(=O)C(C)C (stereo not given) | M14 | > 100 µM (inactive) |
| COc1ccccc1/C=C1\Sc2scc(-c3cccc([N+](=O)[O-])c3)[n+]2C1=O | M14 | 3.93 µM (inactive) |
| CC(=O)NC(CCCNC(=O)N(CCCl)N=O)C(=O)NCc1ccccc1 (stereo not given) | M14 | > 100 µM (inactive) |
| O=c1ccn([C@@H]2C[C@H]2CO)c(=O)[nH]1 | M14 | > 100 µM (inactive) |
| CC(CCC#N)(CCC#N)C(=O)CC(O)(C(F)(F)F)C(F)(F)F | M14 | 2.1 µM (inactive) |

* * *

- System: RXF 393
- PROTOCOL: NCI tumour cell line growth inhibition, 48 h
The source made the active and inactive calls. Rule as the data show it: active = GI50 up to about 1.1 µM and inactive = higher.
Classes used: active, inactive

| MOLECULE | SUBJECT_OF_TEST | CLASS_NAME |
| --- | --- | --- |
| CC12Oc3ccc4ccccc4c3CC1Cc1c(ccc3ccccc13)O2 (configuration not stated) | RXF 393 | inactive |
| c1ccc([B-]2(c3ccccc3)NCCCO2)cc1 | RXF 393 | inactive |
| O=C(c1cc(Cl)cc(Cl)c1)N(C(=S)OC12CC3CC(CC(C3)C1)C2)c1ccccc1 | RXF 393 | inactive |
| CC(=O)Oc1c(-c2ccccc2)sc2ccccc12 | RXF 393 | inactive |
| COc1ccc(/C=N/N=C(\N)NO)c(OC)c1C | RXF 393 | inactive |
| NN/C(Cc1ccccc1)=N/NC(N)=S | RXF 393 | inactive |
| O=c1/c(=C/c2ccc3c(c2)OCO3)sc2nnc(-c3ccco3)n12 | RXF 393 | inactive |
| Cc1cc(=O)oc2cc3c(cc12)Oc1ccccc1O3 | RXF 393 | inactive |
| OC(c1ccc(Br)cc1)(c1cccs1)C1CC1 (configuration not stated) | RXF 393 | inactive |
| C=CCCC(O)c1cc(C)c(O)c(C)c1 (configuration not stated) | RXF 393 | inactive |
| COc1cc(CC2c3cc(OC)c(OC)cc3CCN2C)c(C(=O)O)cc1OC (configuration not stated) | RXF 393 | inactive |
| COC1CC(OC2CCC3(C)C(CCC45CCC(C6=CC(=O)OC6)C(C)(CCC43)C5=O)C2)OC(C)C1O (configuration not stated) | RXF 393 | inactive |
| O=C(CC1C(=O)c2ccccc2C1=C1C(=O)c2ccccc2C1=O)c1ccccc1 (configuration not stated) | RXF 393 | inactive |
| COc1ccc(OC)c(/C=C/C(=O)C(C)(C)C)c1 | RXF 393 | inactive |
| Cc1cn(C2CC(O)C(CO)O2)c(=O)[nH]c1=O (configuration not stated) | RXF 393 | inactive |
| CC(C)=NC(C(=O)O)C(C)(C)S (configuration not stated) | RXF 393 | inactive |
| c1ccc(C2C3=C(CCCC3)Nc3nnnn32)cc1 (configuration not stated) | RXF 393 | active |
| COc1cc(C=C2C(=O)NC(=S)NC2=O)cc(OC)c1OC | RXF 393 | inactive |
| CCN(CC)CCC(=O)N1C/C(=C/c2ccccc2)C(=O)/C(=C\c2ccccc2)C1 | RXF 393 | inactive |
| CCOC(=O)[C@H]1Nc2ccc([N+](=O)[O-])cc2C2c3ccccc3CC21 (some centres not stated) | RXF 393 | inactive |
| COc1ccc(/C=C/CO)cc1OC | RXF 393 | inactive |
| Cc1ccccc1C1SCc2nc3ccccc3n21 (configuration not stated) | RXF 393 | inactive |

* * *

Collected GI50 values appear next to each entry.
- System: T47D
- PROTOCOL: NCI tumour cell line growth inhibition, 48 h
Calls of active or inactive are those of the source. Cut-off read from the data, not from the text of the source: active = GI50 up to about 1.1 µM and inactive = higher.

| COMPOUND | GI50 |
| --- | --- |
| CCOP(=O)(OCC)/C(C#N)=C/c1ccc(-c2ccc(F)cc2F)o1 | 3.3 µM (inactive) |
| Nc1ccc(S(=O)(=O)Nc2nnc(S(N)(=O)=O)s2)cc1 | > 100 µM (inactive) |
| CC[C@]12C=CCN3CC[C@@]4(c5cc(Br)c(OC)cc5N(C)[C@H]4[C@@](O)(C(=O)N[C@@H](Cc4ccc(O)cc4)C(=O)OC)[C@@H]1O)[C@@H]32 | 57.7 µM (inactive) |
| Cc1ccccc1OC(C)C(=O)NN1C(=O)CC(=O)NC1=S (centres undefined) | 23.9 µM (inactive) |
| O=c1ccn([C@@H]2C[C@H]2CO)c(=O)[nH]1 | > 100 µM (inactive) |
| CC(=O)c1ccc(Oc2c3ccccc3nc3ccccc23)cc1 | 3.72 µM (inactive) |
| COc1ccc(/C=C/C(=O)N[C@@H]2C(=O)N3[C@@H]2SC(C)(C)[C@@H]3C(=O)O)cc1OC | > 100 µM (inactive) |
| Cc1ccc2c(c1C)C(=O)C1(C2)Cc2ccc3c(c2C1=O)CCC3 (centres undefined) | > 100 µM (inactive) |
| Cc1cc(O)c2c(c1)C(C1OC(CO)C(O)C(O)C1O)c1cc(O)cc(O)c1C2=O (centres undefined) | > 100 µM (inactive) |

* * *

Collected GI50 values appear next to each entry.
- Tested on: OVCAR-3
- PROTOCOL: NCI tumour cell line growth inhibition, 48 h
Active and inactive are the calls of the source. Cut-off read from the data, not from the text of the source: active = GI50 up to about 1.1 µM and inactive = higher.
ENDPOINT_NAME: GI50

| MOLECULE | ENDPOINT_NAME | ENDPOINT_RESULT |
| --- | --- | --- |
| O=C1C(Cl)N(c2ccc(Cl)cc2)C1c1c[nH]c2ccccc12 (stereo not given) | GI50 | 17.6 µM (inactive) |
| O=C(O)c1c2c(c(O)c3c1CN(C1CCCCC1)CO3)OCN(C1CCCCC1)C2 | GI50 | 69 µM (inactive) |
| CCOC(=O)N/N=C(\CC)OCC | GI50 | > 100 µM (inactive) |
| O=S1(=O)Cc2ccc3c4c2-c2c(ccc5ccc(c-4c25)CS(=O)(=O)C3)C1 | GI50 | > 100 µM (inactive) |
| CNC(=S)/C(C#N)=C(\N)N1CCN(C)CC1 | GI50 | > 100 µM (inactive) |
